experiment: Pharmacokinetic study in rats (plasma, LC-MS/MS, NCA); details: male, Sprague-Dawley, rat, plasma, po, 100 mg/kg, Mean plasma concentration, rats, 0.167 h, multiple p.o. 100 mg/kg
reported.property: concentration at 0.167 h (ng/mL)

[
  {
    "compound": "CC(=O)Nc1ccc(NC(=O)c2ccc(C(C)=O)o2)cc1 [Compound 25a]",
    "reported.property": "concentration at 0.167 h",
    "unit.abbreviation": "ng/mL",
    "number": 936
  }
]

###

assay: Pharmacokinetic study in rats (plasma, LC-MS/MS, NCA); details: male, Sprague-Dawley, rat, plasma, po, 25 mg/kg, Mean plasma concentration, rats, 4 h, single p.o. 25 mg/kg

[
  {
    "compound": "CC(=O)Nc1ccc(NC(=O)c2ccc(C(C)=O)o2)cc1 [Compound 25a]",
    "concentration at 4 h (ng/mL)": 372
  }
]
